The reader will find reported IC50 values listed item by item below.
# assay-notes: Inhibition of human DNA topoisomerase 4

compound | IC50
COc1ccc2nccc([C@@H](O)CC[C@@H]3CCN(CCSc4cccs4)C[C@@H]3C(=O)O)c2c1 | > 200 µM
COc1ccc2ncc(F)c([C@@H](O)CC[C@@H]3CCN(CCSc4cccs4)C[C@@H]3C(=O)O)c2c1 | > 200 µM
COc1ccc2nccc(C(O)CC[C@@H]3CCN(C/C=C/c4cc(F)ccc4F)C[C@@H]3C(=O)O)c2c1 (stereo partly specified) | 100 µM
COc1ccc2nccc(C(O)CC[C@@H]3CCN(C[C@@H]4C[C@H]4c4ccccc4)C[C@@H]3C(=O)O)c2c1 (mixture of isomers) | 150 µM
COc1ccc2nccc([C@H](O)CC[C@@H]3CCN(C4CC(c5ccccc5)C4)C[C@@H]3C(=O)O)c2c1 (stereo partly specified) | > 200 µM
COc1ccc2nccc([C@@H](O)CC[C@@H]3CCN(C4CC(c5ccccc5)C4)C[C@@H]3C(=O)O)c2c1 (stereo partly specified) | > 200 µM
